- TEST METHOD NOTES: Half life in rat at 5 mg/kg, iv administered as single dose
- Type: ADME, organism-based
- Set-up: dose 5 mg/kg, route intravenous
- EXPERIMENTAL CONDITIONS: in vivo
half-life: recorded values

- COMPOUND STRING: "CC(C)(O)Cc1ccc2c(c1)c1cc(OCC3CC3)ccc1c1nc(-c3c(C#N)cccc3C#N)[nH]c21"
  UNIT TEXT: "min"
  half-life: 330
- COMPOUND STRING: "CC(C)CCOc1ccc2c(c1)c1cc(CC(C)(C)O)ccc1c1[nH]c(-c3c(C#N)cccc3C#N)nc21"
  UNIT TEXT: "min"
  half-life: 288
- COMPOUND STRING: "CCc1ccc2c(c1)c1cc(C#CC(C)(C)O)ccc1c1[nH]c(-c3c(C#N)cccc3C#N)nc21"
  UNIT TEXT: "min"
  half-life: 420
- COMPOUND STRING: "CC(C)COc1ccc2c(c1)c1cc(CC(C)(C)O)ccc1c1nc(-c3c(C#N)cccc3C#N)[nH]c21"
  UNIT TEXT: "min"
  half-life: 78
- COMPOUND STRING: "CC(C)(O)Cc1ccc2c(c1)c1cc(OCCCC(F)(F)F)ccc1c1nc(-c3c(C#N)cccc3C#N)[nH]c21"
  UNIT TEXT: "min"
  half-life: 198
- COMPOUND STRING: "CC(C)(O)Cc1ccc2c(c1)c1cc(OCCC3CC3)ccc1c1nc(-c3c(C#N)cccc3C#N)[nH]c21"
  UNIT TEXT: "min"
  half-life: 96
- COMPOUND STRING: "CC(C)(O)Cc1ccc2c(c1)c1cc(OCCC3CC3)ccc1c1[nH]c(-c3c(C#N)cc(F)cc3C#N)nc21"
  UNIT TEXT: "min"
  half-life: 138
- COMPOUND STRING: "CC(C)(O)C#Cc1ccc2c(c1)c1cc(Cl)ccc1c1nc(-c3c(C#N)cccc3C#N)[nH]c21"
  UNIT TEXT: "min"
  half-life: 1200
- COMPOUND STRING: "CC(C)(O)C#Cc1ccc2c(c1)c1cc(C#CC3CC3)ccc1c1nc(-c3c(C#N)cccc3C#N)[nH]c21"
  UNIT TEXT: "min"
  half-life: 2400
- COMPOUND STRING: "N#Cc1cccc(C#N)c1-c1nc2c3ccc(Cl)cc3c3ccccc3c2[nH]1"
  UNIT TEXT: "min"
  half-life: 90
- COMPOUND STRING: "CC(C)(O)CCc1ccc2c(c1)c1cc(Cl)ccc1c1nc(-c3c(C#N)cccc3C#N)[nH]c21"
  UNIT TEXT: "min"
  half-life: 840
- COMPOUND STRING: "CC(C)(O)Cc1ccc2c(c1)c1cc(Cl)ccc1c1nc(-c3c(C#N)cccc3C#N)[nH]c21"
  UNIT TEXT: "min"
  half-life: 504
